Kindly state fold change of Cadaverine concentration for each of the entries shown.
Test system: Klebsiella aerogenes DSM 30053
PROTOCOL SUMMARY: fold change of Cadaverine concentration vs plate DMSO controls (fold change (ratio)); higher = more amine produced, active = hit call of the paper (significant change in both replicates, either direction)
EXPERIMENTAL CONDITIONS: incubation time: 27 h, anaerobic, 37 °C
Counter-ions that a name gives are not always drawn.

A selection of reference data follows.
1) CC(=O)NS(=O)(=O)c1ccc(NC(=O)c2ccccc2C(=O)O)cc1 [Phthalylsulfacetamide] (20 µM) : 0.992 (inactive)
2) CNC(=C[N+](=O)[O-])NCCSCc1ccc(CN(C)C)o1 [Ranitidine hydrochloride] (20 µM) : 1.02 (inactive)
3) CNCC[C@@H](Oc1cccc2ccccc12)c1cccs1 [(R)-Duloxetine hydrochloride] (20 µM) : 0.986 (inactive)
4) Cc1ccsc1C(=CCCN1CCC[C@@H](C(=O)O)C1)c1sccc1C [Tiagabine hydrochloride] (20 µM) : 1.01 (inactive)
5) Cn1cc(C(=O)[C@@H]2CCc3[nH]cnc3C2)c2ccccc21 [Ramosetron hydrochloride] (20 µM) : 0.997 (inactive)

Hi there! I need fold change of Cadaverine concentration for each item below, if you can.
1. CC(CN(C)C)CN1c2ccccc2Sc2ccccc21 (stereo unspecified) [Trimeprazine tartrate] (20 µM)
2. CC(=O)c1ccc2c(c1)N(CCCN1CCC(CCO)CC1)c1ccccc1S2 [Piperacetazine] (20 µM)
3. CN(C)CCCO[C@@H]1[C@H]2OC(C)(C)O[C@H]2O[C@@H]1[C@H](O)CO [Amiprilose hydrochloride] (20 µM)
4. CCC(Cc1c(I)cc(I)c(N)c1I)C(=O)O (stereo unspecified) [Iopanoic acid] (20 µM)

A:
1.01 (inactive)
0.993 (inactive)
0.992 (inactive)
0.985 (inactive)

// input: 7 compounds below; output: fold change of Cadaverine concentration for each
1. C#C[C@]1(O)CC[C@H]2[C@@H]3CCC4=Cc5oncc5C[C@]4(C)[C@H]3CC[C@@]21C [Danazol] (20 µM)
2. CC(=O)N[C@@H](CC(=O)O)C(=O)N[C@@H](CCC(=O)O)C(=O)O [Spaglumic acid] (20 µM)
3. CCCN(CCC)S(=O)(=O)c1ccc(C(=O)O)cc1 [Probenecid] (20 µM)
4. NC12CC3CC(CC(C3)C1)C2 [Adamantamine fumarate] (20 µM)
5. CCN1CCCC(OC(=O)C(c2ccccc2)c2ccccc2)C1 (stereo unspecified) [Piperidolate hydrochloride] (20 µM)
6. CCOC(=O)[C@@](C)(N)Cc1ccc(O)c(O)c1 [Methyldopate hydrochloride] (20 µM)
7. O=C(O)c1cn(-c2ccc(F)cc2)c2cc(N3CCNCC3)c(F)cc2c1=O [Sarafloxacin] (20 µM)

A:
1. 0.993 (inactive)
2. 0.988 (inactive)
3. 1.02 (inactive)
4. 1.09 (inactive)
5. 0.993 (inactive)
6. 1.02 (inactive)
7. 0.969 (inactive)

Look at each compound and report its fold change of Cadaverine concentration.
1. CN1CCN2c3ccccc3Cc3ccccc3C2C1 (stereo unspecified) [Mianserine hydrochloride] (20 µM)
2. CCOc1ccc(NC(=O)CC(C)O)cc1 (stereo unspecified) [Bucetin] (20 µM)
3. Cc1ccc(-c2cc(C(F)(F)F)nn2-c2ccc(S(N)(=O)=O)cc2)cc1 [Celecoxib] (20 µM)
4. CC(=C(CCO)SSCC1CCCO1)N(C=O)Cc1cnc(C)nc1N (stereo in doubt) [Fursultiamine hydrochloride] (20 µM)

A:
0.999 (inactive)
0.993 (inactive)
0.99 (inactive)
0.986 (inactive)

Taken from the supplement of paper PMC12494721.
